The entries below are paired with their reported GI50.
System: NCI-H522
TEST_DETAILS: NCI tumour cell line growth inhibition, 48 h
Activity calls are given as the source filed them. Cut-off read from the data, not from the text of the source: active = GI50 up to about 1.1 µM and inactive = higher.

Use the examples below as a reference point.
1. COc1ccc(/C=C2\C(=O)N(C(=O)Cc3ccccc3)N=C2C)cc1OC; > 100 µM (inactive)
2. CCOC(=O)/C=C/c1cccc(F)c1; > 100 µM (inactive)
3. Cc1cc(C(C)C)cc(=O)c(O)c1; > 100 µM (inactive)

Shifting focus to the molecule that follows.
Which GI50 is reported for this molecule? COC(=O)c1c(C)ccc2c(O)c3c(cc12)C(=O)c1c2c(cc(O)c1C3=O)C1(C)OC(C)(O2)C(O)C(N(C)C)C1O (centres undefined)
1.22 µM (inactive)

---

System: HT-29
TEST_DETAILS: NCI tumour cell line growth inhibition, 48 h
Activity calls are given as the source filed them. No stated cut-off is given here; in the data, active = GI50 up to about 1.1 µM and inactive = higher.
REPORTED_PROPERTY: GI50

Use the examples below as a reference point.
1. CC1(C)CC2(C)CC1CC2(O)c1ccccc1 (stereo unspecified); > 100 µM (inactive)
2. CCOP(=O)(C/C(=N/NC(C)(C)C)C(=O)Nc1nc2ccc(C)cc2s1)OCC; > 100 µM (inactive)
3. CC(C)Oc1c(C2(c3ccccc3O)SCCCS2)c(=O)c1=O; > 100 µM (inactive)
4. C=C(CCCCC)CN1CCCC1C(C)=O (stereo unspecified); 29.6 µM (inactive)
5. CCOC(=O)c1c(C)noc1/N=N/N(CCO)CCO; 33.4 µM (inactive)

Which GI50 is reported for this compound? `COC(=O)CCSC1=CC(=O)c2nc3ccccc3c3ccnc1c23`
18 µM (inactive)

---

Test system: CCRF-CEM
TEST_DETAILS: NCI tumour cell line growth inhibition, 48 h
The source made the active and inactive calls. No stated cut-off is given here; in the data, active = GI50 up to about 1.1 µM and inactive = higher.
The entries below are paired with their reported GI50.

Use the examples below as a reference point.
1) Cc1ccc(C2(C)NC(=S)N(NC(N)=S)C2=S)cc1 (stereo not drawn); 24.6 µM (inactive)
2) CCOP(=O)(C/C(=N/NC(C)(C)C)C(=O)Nc1nc2ccc(C)cc2s1)OCC; > 100 µM (inactive)

Shifting focus to the compound that follows.
Which GI50 is reported for this compound? `CCNC(=O)NNc1ncnc2c1c(-c1ccc(Cl)cc1)cn2-c1ccc(C)cc1`
20.2 µM (inactive)

---

System: UACC-62
TEST_DETAILS: NCI tumour cell line growth inhibition, 48 h
Activity calls are given as the source filed them. No stated cut-off is given here; in the data, active = GI50 up to about 1.1 µM and inactive = higher.
Outcomes you can answer with include only these: active, inactive

These recorded examples may help you get a feel for the data.
1) COC(=O)c1ccc2c(c1)CCN2C(=O)c1cc2c(cc1Br)OCO2; active
2) Cc1cc(N)ccc1/N=N\c1ccc(S(=O)(=O)CCOS(=O)(=O)O)cc1; inactive
3) N#C/C(C(=O)Nc1ccccc1)=C(/N)N1CCCCC1; inactive
4) Cn1cc(C(=O)c2ccccc2)cc(C(=O)c2ccccc2)c1=O; inactive
5) COc1ccc(/C=N/NC(=O)NCCCN(C)C)cc1; inactive
6) CC1(C)S[C@@H]2[C@H](NC(=O)[C@H](N)c3ccccc3)C(=O)N2[C@H]1C(=O)O; inactive
7) COc1cc(N/N=C/C#N)cc(OC)c1OC; inactive
8) CN(NC(=O)/C(=C/c1ccc(O)cc1)NC(=O)c1ccccc1)c1ccnc2cc(Cl)ccc12; inactive

Please share the test call associated with OCc1ccc2c(c1)CC1(C2)Cc2cc3c(cc2C1O)CCC3 (centres undefined) .
inactive

# iterate: `N#C/C(=N/Nc1[nH]cnc1C(N)=O)C(=O)Nc1ccccc1`
inactive

# iterate: CC1(C)CCC2(C(=O)O)C(O)CC3(C)C(=CCC4C5(C)CCC(OC6OCC(O)C(O)C6OC6OCC(O)C(O)C6OC6OCC(O)C(OC7OC(CO)C(O)C(O)C7O)C6O)C(C)(C)C5CCC43C)C2C1 (centres undefined)
inactive

# iterate: `c1ccc2c(Cc3nnc4sc(SSc5nn6c(Cc7c[nH]c8ccccc78)nnc6s5)nn34)c[nH]c2c1`
inactive

# iterate: CC(C)CCNC(=O)C(CC(C)C)NC(=O)[C@H]1O[C@@H]1C(=O)O (some centres undefined)
inactive

# iterate: `NC12CC3CC(C1)CC(C(=O)O)(C3)C2`
inactive

---

System: MDA-N
TEST_DETAILS: NCI tumour cell line growth inhibition, 48 h
Calls of active or inactive are those of the source. Cut-off read from the data, not from the text of the source: active = GI50 up to about 1.1 µM and inactive = higher.
Outcomes you can answer with include only these: Y = active, N = inactive

These recorded examples may help you get a feel for the data.
1) CCCCN1C(=O)C[C@H]2[C@@H]3CCc4cc(OCCN5CCCC5)ccc4[C@H]3CC[C@]2(C)C1=O; N
2) O=C(N/N=C/c1ccc(Cl)cc1)c1c(Cl)c(Cl)c(Cl)c(Cl)c1-c1nc2ccccc2[nH]1; N
3) CO/N=C1\CC(C)N2C(=O)C(C(C)C)NC(=O)C(NC(=O)c3c4nc5c(C(=O)NC6C(=O)NC(C(C)C)C(=O)N7C(C)CC(O)C7C(=O)N(C)CC(=O)N(C)C(C(C)C)C(=O)OC6C)ccc(C)c5oc-4c(C)c(=O)c3N)C(CO)OC(=O)C(C)N(C)C(=O)CN(C)C(=O)C12 (stereo unspecified); Y
4) COc1ccc(/C=C/c2cc(OC)c(OC)c(OC)c2)cc1O[Si](C)(C)C(C)(C)C; N
5) N=C(Cc1ccccc1)NCC(=O)O; N

Next, consider the following compound.
Please share the test call associated with Cc1ccc(-c2nc(-c3cnccn3)n(C3OC(CO)C(O)C(O)C3O)n2)cc1 (stereo unspecified) .
N

---

System: NCI-H460
TEST_DETAILS: NCI tumour cell line growth inhibition, 48 h
Calls of active or inactive are those of the source. Cut-off read from the data, not from the text of the source: active = GI50 up to about 1.1 µM and inactive = higher.
The entries below are paired with their reported GI50.

Which GI50 is reported for this compound? CC1OC(CC(=O)O)CC2=C1C(=O)c1c(O)cccc1C2=O (stereo unspecified) [NANAOMYCIN]
1.74 µM (inactive)

# iterate: `Cc1nn(CNc2ccc(F)c(Cl)c2)c(=S)n1/N=C/c1ccc(-c2ccc(Cl)cc2Cl)o1`
17.1 µM (inactive)

# iterate: `Cc1cc(C)nc(SCCc2cccc[n+]2C)n1`
> 100 µM (inactive)

# iterate: `Cn1c2ccccc2c2c3c(c4c5ccccc5n(C)c4c21)C(=O)N(Cc1ccccc1)C3=O`
> 100 µM (inactive)

# iterate: `CC1(C)CCc2cc3c(cc2O1)OC(C)(C)CC3=O`
> 100 µM (inactive)

# iterate: NC(CCc1ccccc1)(C(=O)O)c1ccccc1 (stereo unspecified)
> 100 µM (inactive)

---

Test system: MOLT-4
TEST_DETAILS: NCI tumour cell line growth inhibition, 48 h
Active and inactive are the calls of the source. Cut-off read from the data, not from the text of the source: active = GI50 up to about 1.1 µM and inactive = higher.
Outcomes you can answer with include only these: active, inactive

These recorded examples may help you get a feel for the data.
1. COc1cc(N/N=C/C#N)cc(OC)c1OC; inactive
2. CCN1CCC(O)(/C=C/c2ccc(Cl)c(Cl)c2)C(C(=O)/C=C/c2ccc(Cl)c(Cl)c2)C1 (configuration not stated); active
3. COC(=O)/C=C\[C@@H]1[C@H](C)N1S(=O)(=O)c1ccc(C)cc1 (some centres not stated); inactive
4. COc1ccc2[nH]c(C(=O)N3CC(CCl)c4ccc(N)cc43)cc2c1 (configuration not stated); active
5. CC1(C)OCC2OC3([C@H](O)CCO)OC(C)(C)OC3C2O1 (some centres not stated); inactive

Please share the test call associated with `CCN(CC)C1=Nc2ccccc2-n2ccnc2C1` .
inactive

# iterate: `Cc1cc(C(C)C)cc(=O)c(O)c1`
inactive

# iterate: `CCNC(=O)NNc1ncnc2c1c(-c1ccc(Cl)cc1)cn2-c1ccc(C)cc1`
inactive

# iterate: CC(c1cccc2ccccc12)/[N+]([O-])=C/c1ccccc1 (configuration not stated)
inactive

# iterate: CCC1CN2CCc3cc(OC)c(OC)cc3C2CC1CC1c2cc(OC)c(OC)cc2CCN1C(=O)CNC(=O)OC(C)(C)C (configuration not stated)
inactive

# iterate: CC1=CCP(C(F)(F)F)P(C(F)(F)F)C1 (configuration not stated)
inactive

# iterate: `CC(C)Oc1c(C2(c3ccccc3O)SCCCS2)c(=O)c1=O`
inactive

# iterate: `COc1ccc(/C=C/c2cc(OC)c(OC)c(OC)c2)cc1O[Si](C)(C)C(C)(C)C`
inactive

# iterate: `[N-]=[N+]=CC(=O)c1ccccc1C#CCCc1ccccc1`
inactive

# iterate: C=C1CC(c2ccc(OCCCN3C(=O)c4ccccc4C3=O)cc2)OC1=O (configuration not stated)
inactive

# iterate: `Cc1cc(C)n(-c2nc(-n3nc(C)cc3C)nc(-n3nc(C)cc3C)n2)n1`
inactive

# iterate: CCSC(=O)C1(C)OC2CCCCC2C1=O (configuration not stated)
inactive

---

Test system: RXF 393
TEST_DETAILS: NCI tumour cell line growth inhibition, 48 h
Active and inactive are the calls of the source. Rule as the data show it: active = GI50 up to about 1.1 µM and inactive = higher.
The entries below are paired with their reported GI50.

Use the examples below as a reference point.
1. C=C=C(CC1CCCCC1=O)S(=O)(=O)c1ccccc1 (centres undefined); > 9.62 µM (inactive)
2. O=C1/C(=C/c2ccccc2O)N=C(c2ccccc2)N1c1nc2ccccc2s1; 34.3 µM (inactive)
3. COC(=O)/C=C(\C(=O)OC)c1cc(C)c2cc(C(C)C)ccc(C)c1-2; 41.4 µM (inactive)
4. COC(=O)/C=C\[C@@H]1[C@H](C)N1S(=O)(=O)c1ccc(C)cc1 (some centres undefined); > 100 µM (inactive)
5. COC(=O)c1ccccc1/C=C1\Cc2ccc3c(c2C1=O)CCC3; > 100 µM (inactive)

Which GI50 is reported for this compound? CCCCCCCCCCC(C(=O)O)C1(C(=O)O)CCC(=O)O1 (centres undefined)
> 100 µM (inactive)

# iterate: `O=C(Nc1ccc2ccccc2c1)c1cc2cc(CCl)ccc2oc1=O`
22 µM (inactive)

# iterate: `O=C(Nc1cccc2c1C(=O)c1c(NC(=O)c3ccccc3)ccc(Nc3cccc4c3C(=O)c3ccccc3C4=O)c1C2=O)c1ccccc1`
59.4 µM (inactive)

# iterate: C=C1CC(c2ccc(OCCCN3C(=O)c4ccccc4C3=O)cc2)OC1=O (centres undefined)
1.99 µM (inactive)

# iterate: `COc1ccc2c(c1)/C(=C/CCN(C)C)c1ccccc1S2`
35.6 µM (inactive)
